Where do these numbers come from? They come from ChEMBL document CHEMBL5528073.

- Experimental protocol: Cytotoxicity against African green monkey Vero cells assessed as reduction in cell viability incubated for 48 hrs by CCK-8 assay
Measured attribute: IC50 at 48 h

Ask | # IC50 at 48 h lookup, item CN(C)CCCC1OC(=O)c2ccccc21 (stereo unspecified)
Reply | > 300 µM

====

- Experimental protocol: Cytotoxicity against HEK293 cells assessed as reduction in cell viability incubated for 48 hrs by CCK-8 assay
- Reported conditions: human
Measured attribute: IC50 at 48 h

Ask | What value of measured IC50 at 48 h is listed for CN(C)CCCC1OC(=O)c2ccccc21 (stereo unspecified) ?
Reply | > 300 µM
